Target: GSPT1 (Homo sapiens (Human), UniProt P15170+Q96SW2)
Sequence (P15170 whole entry): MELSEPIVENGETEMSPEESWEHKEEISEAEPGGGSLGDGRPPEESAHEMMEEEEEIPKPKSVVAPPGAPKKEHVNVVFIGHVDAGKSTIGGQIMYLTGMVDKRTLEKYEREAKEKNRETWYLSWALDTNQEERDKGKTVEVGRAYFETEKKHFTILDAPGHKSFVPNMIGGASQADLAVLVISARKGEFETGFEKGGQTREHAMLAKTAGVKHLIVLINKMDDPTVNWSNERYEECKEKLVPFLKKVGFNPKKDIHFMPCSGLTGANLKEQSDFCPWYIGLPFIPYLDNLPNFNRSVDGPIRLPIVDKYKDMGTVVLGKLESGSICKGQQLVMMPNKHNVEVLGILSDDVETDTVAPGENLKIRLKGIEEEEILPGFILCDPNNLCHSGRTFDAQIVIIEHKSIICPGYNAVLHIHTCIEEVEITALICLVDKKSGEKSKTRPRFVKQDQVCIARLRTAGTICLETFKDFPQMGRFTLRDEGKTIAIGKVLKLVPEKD
Sequence (Q96SW2 whole entry): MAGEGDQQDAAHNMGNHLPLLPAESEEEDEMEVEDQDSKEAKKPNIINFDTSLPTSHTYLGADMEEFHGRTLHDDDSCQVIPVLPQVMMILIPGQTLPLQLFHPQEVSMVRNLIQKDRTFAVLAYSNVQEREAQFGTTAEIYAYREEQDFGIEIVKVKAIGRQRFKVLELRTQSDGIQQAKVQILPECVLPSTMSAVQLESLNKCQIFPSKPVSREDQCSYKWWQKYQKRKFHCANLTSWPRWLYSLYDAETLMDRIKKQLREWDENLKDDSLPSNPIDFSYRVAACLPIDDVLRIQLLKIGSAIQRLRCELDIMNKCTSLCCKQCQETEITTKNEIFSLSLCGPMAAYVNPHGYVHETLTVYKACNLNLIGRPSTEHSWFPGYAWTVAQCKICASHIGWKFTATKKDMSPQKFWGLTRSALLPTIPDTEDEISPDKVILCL
Sequence (Q16531 2-1140 partner): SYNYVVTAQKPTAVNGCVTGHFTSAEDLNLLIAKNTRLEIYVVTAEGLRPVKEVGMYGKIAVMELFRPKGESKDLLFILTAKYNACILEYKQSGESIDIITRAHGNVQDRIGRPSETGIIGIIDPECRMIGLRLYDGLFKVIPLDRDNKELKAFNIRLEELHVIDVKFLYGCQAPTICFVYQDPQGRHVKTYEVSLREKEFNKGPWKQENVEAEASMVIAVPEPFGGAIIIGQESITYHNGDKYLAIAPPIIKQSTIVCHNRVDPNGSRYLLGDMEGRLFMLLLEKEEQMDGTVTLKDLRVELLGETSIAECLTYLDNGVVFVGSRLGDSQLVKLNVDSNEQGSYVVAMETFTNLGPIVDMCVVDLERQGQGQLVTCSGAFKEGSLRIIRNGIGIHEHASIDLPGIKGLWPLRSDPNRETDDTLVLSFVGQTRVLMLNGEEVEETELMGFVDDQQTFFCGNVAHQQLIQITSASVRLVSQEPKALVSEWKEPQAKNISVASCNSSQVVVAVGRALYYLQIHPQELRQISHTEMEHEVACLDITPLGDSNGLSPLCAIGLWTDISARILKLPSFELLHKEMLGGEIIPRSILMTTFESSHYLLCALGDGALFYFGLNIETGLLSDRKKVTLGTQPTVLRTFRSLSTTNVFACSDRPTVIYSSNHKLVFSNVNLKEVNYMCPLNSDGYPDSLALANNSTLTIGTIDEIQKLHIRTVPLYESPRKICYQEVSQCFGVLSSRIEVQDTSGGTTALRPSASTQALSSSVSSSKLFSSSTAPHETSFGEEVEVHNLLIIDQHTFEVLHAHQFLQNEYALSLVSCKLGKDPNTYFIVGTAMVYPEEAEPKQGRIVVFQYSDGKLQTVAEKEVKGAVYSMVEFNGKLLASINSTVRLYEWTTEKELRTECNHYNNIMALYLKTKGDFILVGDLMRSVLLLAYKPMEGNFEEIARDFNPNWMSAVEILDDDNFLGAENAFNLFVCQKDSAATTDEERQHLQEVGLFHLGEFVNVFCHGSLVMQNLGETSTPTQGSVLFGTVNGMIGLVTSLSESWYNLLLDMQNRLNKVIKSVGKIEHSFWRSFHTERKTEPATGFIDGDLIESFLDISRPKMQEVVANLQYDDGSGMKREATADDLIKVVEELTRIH
Assay method text: immunofluorescence assay for GSPT1 degradation in CAL-51 cells (Example 10)
Assay type: cell-based
Condition context: CAL-51 cells, 6 h; read-out: IF Class (GSPT1 degradation DC50)
Assay readout: DC50

[[record]]
molecule = "O=C1CCC(N2Cc3ccc(COC(=O)NC45C6C7C4C4C5C6C74c4ccccc4)cc3C2=O)C(=O)N1 (stereo not drawn) [Compound 225]"
result = "> 0.3 µM"

[[record]]
molecule = "O=C1CCC(N2Cc3ccc(COC(=O)NC45CC(CF)(C4)C5)cc3C2=O)C(=O)N1 (stereo not drawn) [Compound 202]"
result = "> 0.3 µM"

[[record]]
molecule = "Cc1cc2c(c(NC(=O)OCc3ccc4c(c3)C(=O)N(C3CCC(=O)NC3=O)C4)c1)OCC2 (stereo not drawn) [Compound 182]"
result = "> 0.3 µM"

[[record]]
molecule = "CC(C)(C)c1cccc(NC(=O)OCc2ccc3c(c2)C(=O)N(C2CCC(=O)NC2=O)C3)n1 (stereo not drawn) [Compound 170]"
result = "0.03 to 0.3 µM"

[[record]]
molecule = "CCOc1ccc(F)c(NC(=O)OCc2ccc3c(c2)C(=O)N(C2CCC(=O)NC2=O)C3)c1 (stereo not drawn) [Compound 223]"
result = "> 0.3 µM"

[[record]]
molecule = "CCc1cccc(NC(=O)OCc2ccc3c(c2)C(=O)N(C2CCC(=O)NC2=O)C3)c1 (stereo not drawn) [Compound 220]"
result = "< 0.03 µM"

[[record]]
molecule = "Cc1cc(NC(=O)OCc2ccc3c(c2)C(=O)N(C2CCC(=O)NC2=O)C3)ncc1N1CCC[C@H]1C (stereo partly drawn) [Compound 237]"
result = "0.03 to 0.3 µM"

[[record]]
molecule = "Cc1cc(F)c(NC(=O)OCc2ccc3c(c2)C(=O)N(C2CCC(=O)NC2=O)C3)cc1OC(C)C (stereo not drawn) [Compound 230]"
result = "< 0.03 µM"

[[record]]
molecule = "Cc1cc(F)c(NC(=O)OCc2ccc3c(c2)C(=O)N(C2CCC(=O)NC2=O)C3)cc1C (stereo not drawn) [Compound 208]"
result = "> 0.3 µM"

[[record]]
molecule = "Cc1ccc(NC(=O)OCc2ccc3c(c2)C(=O)N([C@H]2CCC(=O)NC2=O)C3)cc1Cl (single isomer, unassigned) [Compound 175]"
result = "< 0.03 µM"

[[record]]
molecule = "COc1cc(NC(=O)OCc2ccc3c(c2)C(=O)N(C2CCC(=O)NC2=O)C3)c(F)cc1C (stereo not drawn) [Compound 229]"
result = "0.03 to 0.3 µM"

[[record]]
molecule = "O=C1CCC(N2Cc3ccc(COC(=O)Nc4ccc(F)c(OC(F)F)c4F)cc3C2=O)C(=O)N1 (stereo not drawn) [Compound 191]"
result = "0.03 to 0.3 µM"

[[record]]
molecule = "O=C1CCC(N2Cc3ccc(COC(=O)Nc4cc(OC(F)F)c(F)cn4)cc3C2=O)C(=O)N1 (stereo not drawn) [Compound 227]"
result = "> 0.3 µM"

[[record]]
molecule = "Cc1ccc(NC(=O)OCc2ccc3c(c2)C(=O)N(C2CCC(=O)NC2=O)C3)c(F)c1Cl (stereo not drawn) [Compound 179]"
result = "< 0.03 µM"

[[record]]
molecule = "O=C1CCC(N2Cc3ccc(COC(=O)Nc4cc(F)c5c(c4)CCO5)cc3C2=O)C(=O)N1 (stereo not drawn) [Compound 212]"
result = "< 0.03 µM"

